molecular target: Protein kinase C alpha type (Homo sapiens, UniProt P17252)
Field: IC50. Provide a value for each of the compounds that follow.

Q: Hello, I am looking for reported IC50 with Protein kinase C alpha type (Homo sapiens, UniProt P17252) for CC1(C)c2cc(OCCN3CCOCC3)ccc2C(=O)c2c1oc1cc(C#Cc3cc(OCC4CC4)ccn3)ccc21 . Could you help?
Result: > 10 µM

Q: Hello, I am looking for reported IC50 with Protein kinase C alpha type (Homo sapiens, UniProt P17252) for Cc1cc(C(=O)NC(C)(C)C)cc(C#Cc2ccc3c4c(oc3c2)C(C)(C)c2cc(NS(C)(=O)=O)ccc2C4=O)n1 . Could you help?
Result: > 10 µM

====

assay: Volume of distribution at steady state in Wistar Hannover rat at 1 mg/kg, iv by LC-MS analysis; format: ADME, organism-based; details: in vivo, read-out: Vdss
Reported Property: Vd (L/kg)
Reply with just the number (in L/kg).

Q: Tell me the measured Vd of Cc1cc(C(=O)NC(C)(C)C)cc(C#Cc2ccc3c4c(oc3c2)C(C)(C)c2cc(NS(C)(=O)=O)ccc2C4=O)n1 , please.
Result: 0.587

====

test: AUC in Wistar Hannover rat at 1 mg/kg, po by LC-MS analysis; format: ADME, organism-based; design: dose 1 mg/kg, route po; settings: in vivo
Reported Property: AUC (ng·h/mL)
Reply with just the number (in ng·h/mL).

Q: Tell me the measured AUC of Cc1cc(C(=O)NC(C)(C)C)cc(C#Cc2ccc3c4c(oc3c2)C(C)(C)c2cc(NS(C)(=O)=O)ccc2C4=O)n1 , please.
Result: 5950

====

assay: Cmax in Wistar Hannover rat at 1 mg/kg, po by LC-MS analysis; format: ADME, organism-based; design: dose 1 mg/kg, route po; conditions: in vivo
Reported Property: Cmax (ng/mL)
Reply with just the number (in ng/mL).

Q: Tell me the measured Cmax of Cc1cc(C(=O)NC(C)(C)C)cc(C#Cc2ccc3c4c(oc3c2)C(C)(C)c2cc(NS(C)(=O)=O)ccc2C4=O)n1 , please.
Result: 581

====

Please consider the recorded IC50 for Vascular endothelial growth factor receptor 2 (Homo sapiens, UniProt P35968) in what follows.
Reply with just the number (in nM).

Q: Tell me the measured IC50 of CC1(C)c2cc(N3CCOCC3)ccc2C(=O)c2c1oc1cc(C#Cc3cc(OCC4CC4)ccn3)ccc21 , please.
Result: 690

Q: Tell me the measured IC50 of CC1(C)c2cc(N3CC4(COC4)C3)ccc2C(=O)c2c1oc1cc(C#Cc3cc(OCC4CC4)ccn3)ccc21 , please.
Result: 430

Q: Tell me the measured IC50 of CC1(C)c2cc(NS(C)(=O)=O)ccc2C(=O)c2c1oc1cc(C#Cc3cc(OCC(F)(F)F)ccn3)ccc21 , please.
Result: 997

Q: Tell me the measured IC50 of CC1(C)c2cc(OCCN3CCOCC3)ccc2C(=O)c2c1oc1cc(C#Cc3cc(OCC4CC4)ccn3)ccc21 , please.
Result: 757

Q: Tell me the measured IC50 of CC1(C)c2cc(OCCN3CC4(COC4)C3)ccc2C(=O)c2c1oc1cc(C#Cc3cc(OCC4CC4)ccn3)ccc21 , please.
Result: 500

====

test: Half life in Wistar Hannover rat at 1 mg/kg, iv by LC-MS analysis; type: ADME, organism-based; conditions: in vivo
Reported Property: half-life
Give your result as the value with the unit written after it.

Q: Tell me the measured half-life of Cc1cc(C(=O)NC(C)(C)C)cc(C#Cc2ccc3c4c(oc3c2)C(C)(C)c2cc(NS(C)(=O)=O)ccc2C4=O)n1 , please.
Result: 7.49 h
